- EXPERIMENTAL_PROTOCOL: qHTS RealTime-Glo MT Cell Viability Assay in HEK293 cells - 8 hour (AID 1224887); also: nearly all actives have a fitted effect of over 50% in size; also: potency is read from the fitted curve at half-maximal effect
- CONDITION_DESCRIPTION: RealTime-Glo luminescence; series mostly up to 76.8 µM
Records with an inconclusive call do not appear. Active and inactive are the calls of the source. Calls follow the shape of the dose curve; as a rule, active = well fitted cell-killing curve with a large enough effect in the repeat runs; inconclusive = weak or mixed curves, or effect the other way; inactive = flat fitted curve, though single readings scatter.
READOUT_LABEL: Potency

compound="CCOC(=O)OC1=C(c2cc(C)ccc2C)C(=O)NC12CCC(OC)CC2 (configuration not stated)" measured_value=inactive
compound=Oc1ccccc1Br measured_value=inactive
compound=N#CCCO measured_value=inactive
compound="CCSC(C)CC1CC(=O)C(/C(CC)=N/OC/C=C/Cl)=C(O)C1 (configuration not stated)" measured_value=inactive

// CCC(C)c1cc([N+](=O)[O-])cc([N+](=O)[O-])c1OC(=O)C=C(C)C (configuration not stated) : Potency value = 49 µM (active)

// ClC1=C(Cl)[C@]2(Cl)[C@@H]3[C@@H]4C[C@@H]([C@H]5O[C@@H]45)[C@@H]3[C@@]1(Cl)C2(Cl)Cl : Potency value = 38.9 µM (active)

// C[CH2][Hg][N]1C(=O)C2C(C1=O)C1(Cl)C(Cl)=C(Cl)C2(Cl)C1(Cl)Cl (configuration not stated) : Potency value = 3.69 µM (active)
